target: SOS1/KRAS WT (Homo sapiens (Human), UniProt Q07889)
Sequence (Q07889 564-1049): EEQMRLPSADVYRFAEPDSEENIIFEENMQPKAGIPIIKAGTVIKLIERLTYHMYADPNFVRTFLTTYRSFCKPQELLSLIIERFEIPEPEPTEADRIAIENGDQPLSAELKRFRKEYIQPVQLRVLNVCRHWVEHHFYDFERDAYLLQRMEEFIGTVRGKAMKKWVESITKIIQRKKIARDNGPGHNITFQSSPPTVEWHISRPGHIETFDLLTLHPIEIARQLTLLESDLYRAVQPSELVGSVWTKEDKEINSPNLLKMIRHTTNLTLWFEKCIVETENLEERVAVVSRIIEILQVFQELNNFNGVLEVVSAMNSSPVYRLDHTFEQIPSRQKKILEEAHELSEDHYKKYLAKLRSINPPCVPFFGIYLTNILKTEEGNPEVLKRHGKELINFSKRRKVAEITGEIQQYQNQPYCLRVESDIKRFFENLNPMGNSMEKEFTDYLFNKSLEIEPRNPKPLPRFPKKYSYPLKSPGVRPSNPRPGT
experiment: SOS1/KRAS WT HTRF binding assay (FRET-based protein-protein interaction)
measurement_context: inhibition of His6-SOS1 (aa564-1049, 40 nM) binding to GST-KRAS-WT (aa1-188, 40 nM); at least two independent replicates; read-out: SOS1/KRAS WT HTRF Binding assay pIC50 (converted)
parameter: IC50 (nM)

[
  {
    "molecule": "CCOC1(C)C(=O)N(C)c2cc3c(N[C@H](C)c4cccc(C(F)(F)C(C)(C)O)c4F)nnc(C)c3cc21 (stereo partly shown) [Compound 132]",
    "target": "SOS1/KRAS WT (Homo sapiens (Human), UniProt Q07889)",
    "reported": 7.94
  }
]

A = COC1(C)C(=O)N(C2CC2)c2cc3c(N[C@H](C)c4cccc(C(F)(F)CO)c4F)nnc(C)c3cc21 (stereo partly shown) [Compound 122]
B = CCN1C(=O)C(C)(OC)c2cc3c(C)nnc(N[C@H](C)c4cccc(C(F)(F)CO)c4F)c3cc21 (stereo partly shown) [Compound 172]
C = COCC1(C)C(=O)N(C2CC2)c2cc3c(N[C@H](C)c4cccc(C(F)(F)C(C)(C)O)c4F)nnc(C)c3cc21 (stereo partly shown) [Compound 136]
Query: Rank items: key IC50, increasing. Output the labels ranked as instructed.
Reply: A, B, C
(A: 5.75 nM, B: 9.77 nM, C: 14.1 nM)

###

target: SOS1/KRAS WT (Homo sapiens (Human), UniProt Q07889)
experiment: SOS1/KRAS WT HTRF binding assay (FRET-based protein-protein interaction)
measurement_context: inhibition of His6-SOS1 (aa564-1049, 40 nM) binding to GST-KRAS-WT (aa1-188, 40 nM); at least two independent replicates; read-out: SOS1/KRAS WT HTRF Binding assay pIC50 (converted)
Procedure: The capacity of compounds to inhibit SOS1 binding to KRAS-WT (wild-type) was quantified using a FRET-based protein-protein interaction assay. […] Binding of SOS1 to KRAS-WT results in an increased fluorescent signal at emission wavelength of 665 nm which can be detected on the EnVision plate reader. […] Following a further 4 hr incubation at room temperature, time-resolved fluorescence was measured on the EnVision plate reader. […]
parameter: IC50 (nM)

[
  {
    "compound": "Cc1nnc(N[C@H](C)c2cccc(C(F)(F)C(C)(C)O)c2)c2cc3c(cc12)n(C)c(=O)n3C1CC1 [Compound 67]",
    "IC50 (nM)": 7.41
  },
  {
    "compound": "Cc1nnc(N[C@H](C)c2cccc(C(F)(F)CO)c2F)c2cc3c(cc12)n(C)c(=O)n3C(C)C [Compound 15]",
    "IC50 (nM)": 8.32
  },
  {
    "compound": "Cc1c([C@@H](C)Nc2nnc(C)c3cc4c(cc23)N(C)C(=O)C42CCOCC2)cccc1C(F)(F)CO [Compound 72]",
    "IC50 (nM)": 9.77
  },
  {
    "compound": "COC1(C)C(=O)N(C)c2cc3c(C)nnc(N[C@H](C)c4cccc(C(F)(F)C(C)(C)O)c4)c3cc21 (stereo partly shown) [Compound 180]",
    "IC50 (nM)": 12
  },
  {
    "compound": "Cc1nnc(N[C@H](C)c2cccc(C(F)(F)C(C)(C)O)c2F)c2cc3c(cc12)N(C)C(=O)C3(C)C [Compound 98]",
    "IC50 (nM)": 12
  },
  {
    "compound": "Cc1c([C@@H](C)Nc2nnc(C)c3cc4c(cc23)C2(CCOCC2)C(=O)N4C)cccc1C(F)(F)C(C)(C)O [Compound 131]",
    "IC50 (nM)": 7.94
  },
  {
    "compound": "CCOC1(C)C(=O)N(C2CC2)c2cc3c(N[C@H](C)c4cccc(C(F)(F)C(C)(C)O)c4)nnc(C)c3cc21 (stereo partly shown) [Compound 165]",
    "IC50 (nM)": 10
  }
]
